# key: entry, value: EC50 of dTomato induction (CD69 promoter), Jurkat-CD69-dTomato cells, 24 h
- study.system: human CD3 (human, UniProt P07766 23-207; P09693 23-182; P04234 22-171)
- test.description: cell-based or functional assay
Numeric answer only, unit µg/mL assumed.

Solved entries (count: 2):
>  <binder>
F332-5D4 (antibody, mouse IgG2b, V domains shown, also called F332-5D4-2; F332-5D4 (5F8)) VH: QVQLQQPGAELGKPGTSVKLSCKASGYTFTSYWMHWVKQRPGQGLEWIGNINPNGGDSNYNEKFKSKATLTVDMSSSTAYMQLSTLTSEDSAVYYCTRDISGQYYFDFWGQGTSLTVFS VL: DILMSQSPSSLAVSAGEQVTMSCKSSQSLLNSRTRKNYLAWYQQKPGQSPKLLIFWASTRKSGVPDRFTGSGSGTYFTLTINSVQTEDLAVYYCTQSYSLRTFGGGTKLEIK

>  <unit.abbreviation>
µg/mL

>  <data.value>
0.27

$$$$
>  <binder>
F332-6D7 (antibody, mouse IgG2a, V domains shown, also called F332-6D7-2; F332-6D7 (7G4)) VH: QVQLQQPGAELGKPGTSVNLSCKASGYTFTSYWMHWVKQRPGQGLDWIGNINPNSGTTNYNEKFKSKATLTVDKSSSTAYMQLSTLTSEDSAVYYCTRDISGQYYFDYWGQGTSLTVSS VL: DIVMSQSPSSLAVSAGEKVTMSCKSSQSLLNSRTRKNYLAWYQQKPGQSPKLLIYWASTRESGVPDRFTGSGSGTDFTLTISSVQAEDLAVYYCKQSYSLRTFGGGSKLEIK

>  <unit.abbreviation>
µg/mL

>  <data.value>
0.25

$$$$

// query Given F332-10B6 (antibody, mouse IgG2a, V domains shown, also called F332-10B6-2; F332-12B5-1) VH: QVQLQQPGAELGKPGTSVNLSCKASGYTFTDYWIHWVKQRPGQGLEWIGNINPNSGDTNYNENFKTKATLTVDRSSSTAYMQLSSLTSEDSAVYYCTRDISGQYYFDFWGQGTTLTVSS VL: DIVMSQSPSSLAVSAGEKVTMSCKSSQSLLNSRTRKNYLAWYQQKPGQSPKLLIYWASTRESGVPDRFTGSGSGTDFTLTISSVQAEDLAVYYCIQSYNLRTFGGGTKLEIK , state its recorded EC50 of dTomato induction (CD69 promoter), Jurkat-CD69-dTomato cells, 24 h.
// result 0.23

Values from patent US20250051443A1
